# method: protein stability index of a GFP-peptide fusion (GPS, HEK-293T) (PSI 1-6); higher = more stable;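 further: 24-mer peptide tiles fused after GFP, lentivirally expressed, FACS-sorted into six equal bins by GFP/DsRed ratio, decoded by Illumina sequencing, PSI is the read-weighted mean bin number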
# conditionLabel: treatment: MLN4924 1 uM, 8 h; c terminus: a fixed tail appended
Decide using protein stability index: a value greater than or equal to 3 is rule met, a smaller one is rule not met.

Task item: protein stability index >= 3 for NVKMIVLICVIVFIIILFIVLFAT [VAMP8] ?
Reply: rule not met

Task item: # check: protein stability index of PIVNISEVLGPLCLMLLMGTVHCQ [PHTF1] is greater than or equal to 3
Reply: rule met

Task item: Hello, I need to know if IPPPLSSVYAWGGGLGTPLRLPML [NEK8] has measured protein stability index not below 3. Thanks!
Reply: rule not met

Task item: Record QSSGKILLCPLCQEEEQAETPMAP [TRIM15] ; criterion: protein stability index no lower than 3. Met?
Reply: rule met

Task item: # bool: protein stability index of VKSNTEQMREAFATAFSKLKPESS [ZBED1] >= 3
Reply: rule met

Task item: Hi, just wondering whether WTSFICDTYIVLAWISKIKGSPDV [SMIM2] shows protein stability index of 3 or higher.
Reply: rule not met

Task item: Given YVWVPIEQCLPSLENSKYCRFNQD [ATE1] , state whether its protein stability index is at least 3.
Reply: rule not met

Task item: Is protein stability index at least 3? Consider TAERKQEQKTGTEAEAADSGAVGA [MFSD9]
Reply: rule met

Task item: Threshold query (protein stability index >= 3) on SGHGDAHLQEYAGNFQGIRFHYDR [FATE1]
Reply: rule met

* * *

# method: protein stability index of a GFP-peptide fusion (GPS, HEK-293T) (PSI 1-6); higher = more stable
# conditionLabel: treatment: MLN4924 1 uM, 8 h; c terminus: a fixed tail appended
Answer -1 if protein stability index is under 3, and 1 if it is 3 or more.

Task item: Check if protein stability index >= 3 (inclusive). Item: QFLNDRLASYLEKVRQLERDNAEL [KRT33B]
Reply: 1

Task item: Dear colleague, could you confirm whether ANLTPNVGGYFVDKFVATMYHYLQ [P3H4] has protein stability index at or above 3?
Reply: -1

Task item: // inclusive: protein stability index at least 3? input: SFVYGAVPIGASIYVIGDLDTGTN [GAN]
Reply: -1

Task item: Does the reported protein stability index for VGYTALVGSDAESWGWDLGRSRLY [SPSB4] fall at or above the 3 mark?
Reply: -1

Task item: Is protein stability index for QTIQKTTTRRIVDGKVVSETNDTK [KRT18] at or above 3?
Reply: 1

Task item: Confirm if protein stability index reported for the sequence MKAAVDLKPTLTIIKTEKVDLELF [ETS1] is 3 or above.
Reply: -1

Task item: // inclusive: protein stability index at least 3? input: KFLEICKLSGFMSKLVPAIQNAHK [TPRG1]
Reply: -1

Task item: # check: protein stability index of TSSAKVDMTFEEEAQLLQLKVKCL [FKBP8] is greater than or equal to 3
Reply: 1

Task item: # check: protein stability index of NQLTHTDLKPENILFVNSEFETLY [CLK3] is greater than or equal to 3
Reply: 1

Task item: Determine whether this sequence has protein stability index no lower than 3: VAPPEDKESESEAKVDGETASDSE [CDS2]
Reply: 1

Task item: I'd appreciate it if you could say whether AQMAKAAAEERALFTDRMATRSTT [WEE1] has protein stability index at least equal to 3.
Reply: 1
